# System: COR-L 105
# Protocol summary: relative viability (nuclei count vs DMSO), 5 days (fraction); higher = more cells survive
# Run conditions: first compound 0.1 µM
Endpoint name: relative viability

INSERT INTO results (molecule, val) VALUES
  ('NC(=O)Nc1cc(-c2cccc(F)c2)sc1C(=O)N[C@H]1CCCNC1 [AZD7762] + CCNC(=O)c1noc(-c2cc(C(C)C)c(O)cc2O)c1-c1ccc(CN2CCOCC2)cc1 [Luminespib] (partner 0.01 µM)', 0.696),
  ('NC(=O)Nc1cc(-c2cccc(F)c2)sc1C(=O)N[C@H]1CCCNC1 [AZD7762] + Nc1ncn([C@H]2C[C@H](O)[C@@H](CO)O2)c(=O)n1 [Decitabine] (partner 2 µM)', 0.643),
  ('NC(=O)Nc1cc(-c2cccc(F)c2)sc1C(=O)N[C@H]1CCCNC1 [AZD7762] + COc1cc2c(Oc3ccc(NC(=O)C4(C(=O)Nc5ccc(F)cc5)CC4)cc3F)ccnc2cc1OCCCN1CCOCC1 [Foretinib] (partner 0.25 µM)', 1.01),
  ('NC(=O)Nc1cc(-c2cccc(F)c2)sc1C(=O)N[C@H]1CCCNC1 [AZD7762] + Cc1nc(NC(=O)N2CCC[C@H]2C(N)=O)sc1-c1ccnc(C(C)(C)C(F)(F)F)c1 [Alpelisib] (partner 2 µM)', 0.92),
  ('NC(=O)Nc1cc(-c2cccc(F)c2)sc1C(=O)N[C@H]1CCCNC1 [AZD7762] + O=C(c1cc(Cc2n[nH]c(=O)c3ccccc23)ccc1F)N1CCN(C(=O)C2CC2)CC1 [Olaparib] (partner 8 µM)', 0.529),
  ('NC(=O)Nc1cc(-c2cccc(F)c2)sc1C(=O)N[C@H]1CCCNC1 [AZD7762] + Cc1cc(Nc2cc(N3CCN(C)CC3)nc(Sc3ccc(NC(=O)C4CC4)cc3)n2)n[nH]1 [Tozasertib] (partner 0.1 µM)', 0.328),
  ('NC(=O)Nc1cc(-c2cccc(F)c2)sc1C(=O)N[C@H]1CCCNC1 [AZD7762] + CS(=O)(=O)CCNCc1ccc(-c2ccc3ncnc(Nc4ccc(OCc5cccc(F)c5)c(Cl)c4)c3c2)o1 [Lapatinib] (partner 2 µM)', 0.254),
  ('NC(=O)Nc1cc(-c2cccc(F)c2)sc1C(=O)N[C@H]1CCCNC1 [AZD7762] + O=C(CCCCCCC(=O)Nc1ccccc1)NO [Vorinostat] (partner 1 µM)', 0.808);

====

Below, each of the compounds is paired with its reported relative viability value.
# Test system: NCI-H1650
# Protocol summary: relative viability (nuclei count vs DMSO), 5 days (fraction); higher = more cells survive
# Run conditions: first compound 0.5 µM
Endpoint name: relative viability

INSERT INTO assay_data (compound, assayed_system, endpoint_name, val) VALUES
  ('CC1(C)CCC(c2ccc(Cl)cc2)=C(CN2CCN(c3ccc(C(=O)NS(=O)(=O)c4ccc(N[C@H](CCN5CCOCC5)CSc5ccccc5)c(S(=O)(=O)C(F)(F)F)c4)cc3)CC2)C1 [Navitoclax] + CC(C)C[C@H](NC(=O)[C@H](Cc1ccccc1)NC(=O)c1cnccn1)B(O)O [Bortezomib] (partner 0.002 µM)', 'NCI-H1650', 'relative viability', 0.163),
  ('CC1(C)CCC(c2ccc(Cl)cc2)=C(CN2CCN(c3ccc(C(=O)NS(=O)(=O)c4ccc(N[C@H](CCN5CCOCC5)CSc5ccccc5)c(S(=O)(=O)C(F)(F)F)c4)cc3)CC2)C1 [Navitoclax] + O=C(c1cc(Cc2n[nH]c(=O)c3ccccc23)ccc1F)N1CCN(C(=O)C2CC2)CC1 [Olaparib] (partner 8 µM)', 'NCI-H1650', 'relative viability', 0.649),
  ('CC1(C)CCC(c2ccc(Cl)cc2)=C(CN2CCN(c3ccc(C(=O)NS(=O)(=O)c4ccc(N[C@H](CCN5CCOCC5)CSc5ccccc5)c(S(=O)(=O)C(F)(F)F)c4)cc3)CC2)C1 [Navitoclax] + COc1cccc2cc(-c3nc([C@H]4CC[C@H](C(=O)O)CC4)n4ncnc(N)c34)[nH]c12 [OSI-027] (partner 0.5 µM)', 'NCI-H1650', 'relative viability', 0.445),
  ('CC1(C)CCC(c2ccc(Cl)cc2)=C(CN2CCN(c3ccc(C(=O)NS(=O)(=O)c4ccc(N[C@H](CCN5CCOCC5)CSc5ccccc5)c(S(=O)(=O)C(F)(F)F)c4)cc3)CC2)C1 [Navitoclax] + N=C(N)NC(=N)NCCc1ccccc1 [Phenformin] (partner 250 µM)', 'NCI-H1650', 'relative viability', 0.313);
